EC50 overview
# Test system: DMS 114 cells
# Experimental protocol: Proliferation assay DMS 114 (Alamar Blue, 144 h)
# Assay type: cell-based
# Measurement parameters: Homo sapiens, DMS114, small cell lung cancer, read-out: proliferation assays
Please reply with the bare figure in nM and do not write the unit itself.

1. CCOc1ccccc1S(=O)(=O)NC(=O)c1cc2ccc(N(C)C)cc2o1: 136

Turning now to a further molecule:
## Task Returns the measured EC50 for the input molecule. Input: "CCCOc1ccccc1S(=O)(=O)NC(=O)c1cc2ccc(N(C)C)cc2o1"
## Result 205

====

# System: ZR-75-1 cells
# Experimental protocol: Proliferation assay ZR-75-1 (Alamar Blue, 144 h)
# Format: cell-based
# Measurement parameters: Homo sapiens, ZR-75-1, 144 h, arithmetic mean, read-out: ZR75-1 proliferation assay, EC50 [M] (arithmetic mean)
Measurement label: EC50 (M)
Please reply with the bare figure in M and do not write the unit itself.

Solved cases below.
1. CN(C)c1ccc2cc(C(=O)NS(=O)(=O)c3cc(Cl)c(Cl)cc3OC(F)(F)F)oc2c1 [Example 137]: 5.61e-06
2. Cc1cc(N(C)C)cc2oc(C(=O)NS(=O)(=O)c3ccccc3-c3ccccc3)cc12 [Example 35]: 6.03e-06
3. CC(O)c1ccc(Cl)c(S(=O)(=O)NC(=O)c2cc3ccc(N(C)C)cc3o2)c1 (stereo not shown) [Example 163]: 9.38e-07

Turning now to a further molecule:
## Task Returns the measured EC50 for the input molecule. Input: O=C(NS(=O)(=O)c1ccccc1-c1ccccc1)c1cc2ccc(N3CCCC3)cc2o1 [Example 45]
## Result 1.19e-05
